Test: Hepatocyte intrinsic clearance and metabolite profile
Type: in vitro ADME, rat
Conditions: male, Sprague Dawley, rat, cryopreserved hepatocytes; 1 µM; read-out: CLint in vitro
Each entry below carries its recorded hepatocyte CLint at 1 µM.

>  <molecule>
CSc1ccc(OCc2ncc([N+](=O)[O-])n2C)cc1

>  <result.units>
µL/min/1e6 cells

>  <hepatocyte CLint at 1 µM>
602

$$$$
>  <molecule>
CCOc1ccc2ccc(=O)oc2c1 [7-ethoxycoumarin, reference compound]

>  <result.units>
µL/min/1e6 cells

>  <hepatocyte CLint at 1 µM>
52.4

$$$$

* * *

Test: in vivo
Conditions: both sexes, beagle, dog, po

>  <molecule>
CSc1ccc(OCc2ncc([N+](=O)[O-])n2C)cc1 [Fexinidazole]

>  <result.units>
mg/kg/day

>  <NOAEL at 28 days>
200

$$$$

* * *

Assay: Mouse brain concentrations
Type: in vivo
Conditions: female, NMRI, mouse, brain, intravenous, 1 mg/kg, fexinidazole 1 mg/kg iv, 30 min; read-out: Brain concentration
assay.readout: concentration at 30 min (ng/g)

>  <compound>
Cn1c([N+](=O)[O-])cnc1COc1ccc([S+](C)[O-])cc1 (centres unmarked) [Fexinidazole sulfoxide]

>  <observed.value>
173

$$$$
>  <compound>
CSc1ccc(OCc2ncc([N+](=O)[O-])n2C)cc1 [Fexinidazole]

>  <observed.value>
36.2

$$$$

* * *

Assay: Rat single-dose IV and oral pharmacokinetics
Assay type: in vivo
Settings: male, Sprague Dawley, plasma, fexinidazole 10 mg/kg oral

>  <compound>
Cn1c([N+](=O)[O-])cnc1COc1ccc(S(C)(=O)=O)cc1 [Fexinidazole sulfone]

>  <Tmax>
6 h

$$$$
>  <compound>
Cn1c([N+](=O)[O-])cnc1COc1ccc([S+](C)[O-])cc1 (stereo not drawn) [Fexinidazole sulfoxide]

>  <Tmax>
2 h

$$$$
>  <compound>
CSc1ccc(OCc2ncc([N+](=O)[O-])n2C)cc1 [Fexinidazole]

>  <Tmax>
2 h

$$$$

* * *

Test: in vitro
Conditions: dog, MDCK-MDR1, pH 7.4, Percent Recovery A→B

>  <smiles.representation>
CSc1ccc(OCc2ncc([N+](=O)[O-])n2C)cc1

>  <result.units>
%

>  <recovery at 2 h, 5 µM>
71

$$$$

* * *

Assay: Rat 28-day toxicokinetics
Format: in vivo
Conditions: female, Sprague Dawley (Crl:CD (SD)IGS BR), plasma, po, 200 mg/kg/day, Day 28, female, read-out: AUC0-t(last)
Each entry below carries its recorded AUC(0-t).
assay.readout: AUC(0-t)

>  <molecule>
Cn1c([N+](=O)[O-])cnc1COc1ccc([S+](C)[O-])cc1 (centres unmarked) [Fexinidazole sulfoxide]

>  <observed.value>
153000 ng·h/mL

$$$$
>  <molecule>
CSc1ccc(OCc2ncc([N+](=O)[O-])n2C)cc1

>  <observed.value>
4750 ng·h/mL

$$$$

* * *

Each entry below carries its recorded AUC(0-t).
Test: Rat 28-day toxicokinetics
Assay type: in vivo
Details: Sprague-Dawley (Crl:CD (SD)IGS BR), plasma, po, 50 mg/kg/day, 50 mg/kg/day po, day 1, read-out: AUC0-t(last)
assay.readout: AUC(0-t)

>  <compound>
CSc1ccc(OCc2ncc([N+](=O)[O-])n2C)cc1

>  <observed.value>
470 ng·h/mL

$$$$
>  <compound>
Cn1c([N+](=O)[O-])cnc1COc1ccc([S+](C)[O-])cc1 (stereo not drawn) [Fexinidazole sulfoxide]

>  <observed.value>
15400 ng·h/mL

$$$$
>  <compound>
Cn1c([N+](=O)[O-])cnc1COc1ccc(S(C)(=O)=O)cc1

>  <observed.value>
36100 ng·h/mL

$$$$
